# Test system: Aspergillus flavus
# Run Description: Antifungal activity against Aspergillus flavus after 72 to 96 hr by two-foldserial dilution method
# Format: functional
Kindly state MIC for each of the entries shown.
// note: answer is a bare numeric in mg/L

Input: Bench note: what MIC did C[C@@H]1[C@H](O)[C@@H](C)/C=C/C=C/C=C/C=C/C=C/C=C/C=C/[C@H](O[C@@H]2O[C@H](C)[C@@H](O)[C@H](N)[C@@H]2O)C[C@@H]2O[C@](O)(C[C@@H](O)C[C@@H](O)[C@H](O)CC[C@@H](O)C[C@@H](O)CC(=O)O[C@H]1C)C[C@H](O)[C@H]2C(=O)O [AMPHOTERICIN B] show?
Output: 25

Input: Bench note: what MIC did CC(C)C1/C(=N\O)CC(c2ccco2)N(C=O)C1c1ccco1 (stereo not given) show?
Output: 12.5

Input: Bench note: what MIC did CC1/C(=N\O)CC(c2ccco2)N(C=O)C1c1ccco1 (stereo not given) show?
Output: 50

Input: Bench note: what MIC did CCC1/C(=N\O)CC(c2ccco2)N(C=O)C1c1ccco1 (stereo not given) show?
Output: 50

Input: Bench note: what MIC did O=CN1C(c2ccco2)C/C(=N/O)C(Cc2ccccc2)C1c1ccco1 (stereo not given) show?
Output: 25

Reference source: ChEMBL document CHEMBL3044883
